Measured values drawn from patent US5059627A for this set.

- Test details: in vivo
- Experimental setup: mouse, po
Readout: LD50

Problem: Field request: LD50 | item: Cc1cc(O)c(C)c(C)c1O [2,3,5-Trimethyl-1,4-hydroquinone, 2,3,5-trimethyl-1,4-hydroquinone]
Result: > 500 mg/kg

Problem: One more compound: `COc1c(O)c(C)c(CCCCCCCCCCO)c(O)c1OC`
Result: > 1000 mg/kg

Problem: One more compound: `COC1=C(OC)C(=O)C(C/C=C(\C)CCC=C(C)C)=C(C)C1=O`
Result: > 500 mg/kg
